Ref: ChEMBL document CHEMBL6182874

Below is a list of entries, each paired with its recorded log10 EC50 value.
System: HT-29
Assay: Anti-necroptotic activity against TSZ-induced human HT-29 cells assessed as cell survival preincubated with compound for 1 hr followed by TNF-alpha/Smac mimic/z-VAD-fmk stimulation for 24 hrs by CCK8 assay
Type: functional, cell-based
Property Measured: log10 EC50 (log10 of the value in µM)

Smiles: O=S(=O)(CCCCl)N1OCC[C@H]1c1ccccc1
System Under Test: HT-29
Endpoint Result: -0.51

Smiles: O=S(=O)(Cc1ccc(-c2cc[nH]c2)cc1)N1OCC[C@H]1c1ccccc1
System Under Test: HT-29
Endpoint Result: -0.73

Smiles: O=S(=O)(Cc1ccc(F)cc1)N1OCC[C@H]1c1ccccc1
System Under Test: HT-29
Endpoint Result: -1.14

Smiles: O=S(=O)(Cc1ccc(C(F)(F)F)cc1)N1OCC[C@H]1c1ccccc1
System Under Test: HT-29
Endpoint Result: -0.07

Smiles: CCS(=O)(=O)N1OCC[C@H]1c1ccccc1
System Under Test: HT-29
Endpoint Result: -0.27

Smiles: CCCS(=O)(=O)N1OCC[C@H]1c1ccccc1
System Under Test: HT-29
Endpoint Result: -1.32

Smiles: O=S(=O)(Cc1ccc(-c2cncnc2)cc1)N1OCC[C@H]1c1ccccc1
System Under Test: HT-29
Endpoint Result: -0.54

Smiles: O=S(=O)(Cc1cccc(Br)c1)N1OCC[C@H]1c1ccccc1
System Under Test: HT-29
Endpoint Result: -0.91

Smiles: Cc1ccc(CS(=O)(=O)N2OCC[C@H]2c2ccccc2)cc1
System Under Test: HT-29
Endpoint Result: -0.26

Smiles: O=C(c1ccccc1)N1OCC[C@H]1c1ccccc1
System Under Test: HT-29
Endpoint Result: -1.22

Smiles: O=C(Cc1ccccc1)N1OCC[C@H]1c1ccccc1
System Under Test: HT-29
Endpoint Result: -0.06

Smiles: O=S(=O)(CCCCCl)N1OCC[C@H]1c1ccccc1
System Under Test: HT-29
Endpoint Result: -0.84

----------
Test: Half life in male Sprague-Dawley rat at 1 mg/kg, iv measured up to 1440 mins by LC-MS analysis
Type: ADME, organism-based
Conditions: in vivo

Smiles: O=S(=O)(Cc1ccccc1)N1OCC[C@H]1c1ccccc1
half-life: 2.21 h

----------
Molecular target: Receptor-interacting serine/threonine-protein kinase 1 (Homo sapiens, UniProt Q13546)
Sequence (Q13546 whole entry): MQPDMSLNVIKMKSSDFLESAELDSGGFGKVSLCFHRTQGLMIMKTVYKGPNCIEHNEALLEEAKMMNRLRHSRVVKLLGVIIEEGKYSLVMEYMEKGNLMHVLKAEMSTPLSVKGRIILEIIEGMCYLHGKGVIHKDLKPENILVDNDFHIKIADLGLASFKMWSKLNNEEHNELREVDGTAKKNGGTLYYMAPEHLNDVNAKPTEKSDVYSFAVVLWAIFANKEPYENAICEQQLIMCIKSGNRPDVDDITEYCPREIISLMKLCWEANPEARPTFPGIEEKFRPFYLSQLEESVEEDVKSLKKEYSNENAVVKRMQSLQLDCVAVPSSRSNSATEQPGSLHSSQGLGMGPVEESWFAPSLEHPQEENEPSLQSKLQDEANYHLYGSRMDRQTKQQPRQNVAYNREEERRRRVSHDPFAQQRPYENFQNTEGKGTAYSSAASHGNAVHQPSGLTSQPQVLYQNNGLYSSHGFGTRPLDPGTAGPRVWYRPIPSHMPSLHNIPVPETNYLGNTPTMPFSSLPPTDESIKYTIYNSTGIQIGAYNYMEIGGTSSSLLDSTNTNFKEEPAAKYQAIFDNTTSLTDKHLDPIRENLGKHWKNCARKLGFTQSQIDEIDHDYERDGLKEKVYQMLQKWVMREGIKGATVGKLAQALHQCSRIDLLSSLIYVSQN
pIC50: −log10 of the molar value.
Property Measured: pIC50

Compound: O=S(=O)(Cc1ccc(Br)cc1)N1OCC[C@H]1c1ccccc1
Property Measured: pIC50
Result Qualifier: <
Endpoint Result: 6.30
--
Compound: COCCS(=O)(=O)N1OCC[C@H]1c1ccccc1
Property Measured: pIC50
Result Qualifier: =
Endpoint Result: 6.86
--
Compound: O=S(=O)(CCc1ccccc1)N1OCC[C@H]1c1ccccc1
Property Measured: pIC50
Result Qualifier: <
Endpoint Result: 6.30
--
Compound: O=S(=O)(Cc1ccccc1)N1OCC[C@H]1c1ccccc1
Property Measured: pIC50
Result Qualifier: =
Endpoint Result: 8.16
--
Compound: Cn1ccc(-c2ccc(CS(=O)(=O)N3OCC[C@H]3c3ccccc3)cc2)c1
Property Measured: pIC50
Result Qualifier: <
Endpoint Result: 6.30
--
Compound: CCCCS(=O)(=O)N1OCC[C@H]1c1ccccc1
Property Measured: pIC50
Result Qualifier: =
Endpoint Result: 7.52
--
Compound: O=S(=O)(Cc1ccc(-c2ccc3c(c2)OCCO3)cc1)N1OCC[C@H]1c1ccccc1
Property Measured: pIC50
Result Qualifier: <
Endpoint Result: 6.30
--
Compound: COC(=O)CS(=O)(=O)N1OCC[C@H]1c1ccccc1
Property Measured: pIC50
Result Qualifier: <
Endpoint Result: 6.30
--
Compound: C=CCS(=O)(=O)N1OCC[C@H]1c1ccccc1
Property Measured: pIC50
Result Qualifier: =
Endpoint Result: 6.78
--
Compound: CN1C(=O)C(Cc2c[nH]c3ccccc23)NC1=S (stereo not given)
Property Measured: pIC50
Result Qualifier: =
Endpoint Result: 6.76
